// reported cytotoxicity at 70.5 h for each item listed
- testProtocol: Human HepG2 cell viability assay in 384 well format
- Assay type: toxicity, cell-based
- Parameters: dose 125 nL, time 70.5 hour; concentration not given beside the values
- runConditions: HepG2 cells, read-out: Inhibition
State the answer as a number, implicitly in %.

The following compounds have reported results that may help.
| compound | cytotoxicity at 70.5 h / % |
| --- | --- |
| O=C(CCc1cc(O)no1)N1CCC(Cc2ccc(F)cc2)CC1 | -12 |
| CCN1CCN(C2CCN(Cc3nnc(C(C)(C)C)o3)CC2)C1=O | -11.1 |
| Cc1nccc(CNC(=O)N2CCN(Cc3ccccc3)C[C@H]2C)n1 | -8.68 |
| Cc1ccc(CN(CCN(C)C)C(=O)Nc2ccc(C)c(C#N)c2)s1 | 1.83 |
| CC(C)c1noc(CCC(=O)N2CCCC(n3ccnc3)C2)n1 (configuration not stated) | -5.4 |
| CCn1ccnc1CN1CCN(CCc2ccccn2)CC1C (configuration not stated) | -3.46 |
| CC(=O)N1CCN(CCCOc2ccccc2F)CC(C(N)=O)C1 (configuration not stated) | -13.8 |
| Cc1nc(CN2CCCC2Cn2cncn2)nc2ccccc12 (configuration not stated) | -12.1 |
| COc1ccc2c(c1)CN(CC(=O)NC1CCCC1)CC2 | -12.6 |
| O=C(NCCC1CCN(CC(F)(F)F)CC1)C1CCCOC1 (configuration not stated) | 3.94 |

In: Please look at this compound and report its cytotoxicity at 70.5 h: CCc1nc(C2CCCN2C(=O)c2ccoc2C)no1 (configuration not stated)
Out: -9.91

In: Please look at this compound and report its cytotoxicity at 70.5 h: CCC1CN(C(=O)c2cc(C(C)=O)c(C)[nH]c2=O)CCN1C(C)C (configuration not stated)
Out: -9.37
